Test system: IL-10
method summary: IL-10 release in supernatants of LPS-treated primary microglial cells (ELISA)
Type: cell-based, Wistar rats
measurement conditions: C2: 2.5 μg/mL, 72 h, LPS-treated
In this section, each of the compounds is paired with its reported IL-10 release.
Please state the figure in pg/mL; there is no need to write the unit.

Some entries whose results are on file:
compound	IL-10 release / pg/mL
C=C(C)[C@@H]1C/C=C2\C(=O)O[C@@H](C[C@]3(C)CC(=O)[C@H](CC(=O)C1)O3)[C@@H]2O [Compound 1, 5-epi-sinuleptolide]	8.2
C=C(C)[C@@H]1C/C=C(\C(=O)OC)CC(=O)C[C@]2(C)CC(=O)[C@H](CC(=O)C1)O2	7.9

// moving on: another record for IL-10 release
Looking up C=C(C)[C@@H]1CC(=O)[C@H]2[C@H](C1)[C@@H]1C(=O)O[C@@H]3C[C@@]4(C)O[C@H]2C(=O)[C@@H]4[C@H]13 [Compound 6, ineleganolide] , I found its IL-10 release recorded as 7.8
